Biological target: T1, PhNob1Zn (Pyrococcus horikoshii, UniProt O58440 121-161)
T1 chain: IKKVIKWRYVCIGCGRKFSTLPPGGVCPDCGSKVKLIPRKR
Assay: NMR titration
pKd: −log10 of the molar value.

# binder, pKd
rows = [
    ("GACUGCCGGCGAUAAGCCGGAGGAAG (structured_RNA) [PhH40 unlabeled (gel filtration, NMR)]", "> 6.00"),
]
